Reference source: ChEMBL document CHEMBL1128495

Please respond with reported IC50 for every item in the list.
Give the quantity in µM, number only.

Exercise: Form entry - test system: Human immunodeficiency virus type 1 protease (Human immunodeficiency virus 1); read-out: IC50; compound: `Cc1nc(C)c(C(=O)N[C@H](C(=O)N[C@@H](Cc2ccccc2)[C@@H](O)[C@H](O)[C@H](Cc2ccccc2)NC(=O)[C@@H](NC(=O)c2sc(C)nc2C)C(C)C)C(C)C)s1`
Key: 0.86

Exercise: # query: IC50 | item `Cc1nc(C)c(C(=O)N[C@H](C(=O)N[C@@H](Cc2ccccc2)C[C@H](O)[C@H](Cc2ccccc2)NC(=O)[C@@H](NC(=O)c2sc(C)nc2C)C(C)C)C(C)C)s1` | system: Human immunodeficiency virus type 1 protease (Human immunodeficiency virus 1)
Key: 0.013

Exercise: Given the entry `CC(C)[C@H](NC(=O)C(O)(c1ccccc1)c1ccccc1)C(=O)N[C@@H](Cc1ccccc1)[C@@H](O)[C@H](O)[C@H](Cc1ccccc1)NC(=O)[C@@H](NC(=O)C(O)(c1ccccc1)c1ccccc1)C(C)C` , what IC50 was observed with Human immunodeficiency virus type 1 protease (Human immunodeficiency virus 1)?
Key: 6.4

Exercise: Report IC50 for CC(C)[C@H](NC(=O)CC1NC(=O)NC1=O)C(=O)N[C@@H](Cc1ccccc1)[C@@H](O)[C@H](O)[C@H](Cc1ccccc1)NC(=O)[C@@H](NC(=O)CC1NC(=O)NC1=O)C(C)C (stereo not given in full) tested on Human immunodeficiency virus type 1 protease (Human immunodeficiency virus 1).
Key: 0.0096

Exercise: Request body: readout IC50, system Human immunodeficiency virus type 1 protease (Human immunodeficiency virus 1), query `CC(C)[C@H](NC(=O)Cc1csc(N)n1)C(=O)N[C@@H](Cc1ccccc1)[C@@H](O)[C@H](O)[C@H](Cc1ccccc1)NC(=O)[C@@H](NC(=O)Cc1csc(N)n1)C(C)C` . Return the value.
Key: 0.012

Exercise: Short answer please: IC50, Human immunodeficiency virus type 1 protease (Human immunodeficiency virus 1), entry `CC(C)[C@H](NC(=O)C(O)(c1ccccc1)c1ccccc1)C(=O)N[C@@H](Cc1ccccc1)C[C@H](O)[C@H](Cc1ccccc1)NC(=O)[C@@H](NC(=O)C(O)(c1ccccc1)c1ccccc1)C(C)C`
Key: 0.16

* * *

target: Human immunodeficiency virus type 1 protease (Human immunodeficiency virus 1) (UniProt Q72874); experiment: Inhibitory activity against HIV Protease at a dose of 0.5 nM
quantity_measured: inhibition (%)
The answer is to be given in %; state only the numeric part.

Exercise: Can you share its inhibition? I mean this molecule: CC(C)[C@H](NC(=O)CC1NC(=O)NC1=O)C(=O)N[C@@H](Cc1ccccc1)[C@@H](O)[C@H](O)[C@H](Cc1ccccc1)NC(=O)[C@@H](NC(=O)CC1NC(=O)NC1=O)C(C)C (some centres undefined)
Key: 33

Exercise: Requested field: inhibition. Item: `COc1cc(CC(=O)N[C@H](C(=O)N[C@@H](Cc2ccccc2)C[C@H](O)[C@H](Cc2ccccc2)NC(=O)[C@@H](NC(=O)Cc2cc(OC)c(OC)c(OC)c2)C(C)C)C(C)C)cc(OC)c1OC`
Key: 71

Exercise: # lookup: inhibition of CC(C)[C@H](NC(=O)CC1NC(=O)NC1=O)C(=O)N[C@@H](Cc1ccccc1)C[C@H](O)[C@H](Cc1ccccc1)NC(=O)[C@@H](NC(=O)CC1NC(=O)NC1=O)C(C)C (some centres undefined)
Key: 43

Exercise: Which inhibition is listed for `CC(C)[C@H](NC(=O)Cc1csc(N)n1)C(=O)N[C@@H](Cc1ccccc1)C[C@H](O)[C@H](Cc1ccccc1)NC(=O)[C@@H](NC(=O)Cc1csc(N)n1)C(C)C` ?
Key: 40
